test: Lipophilicity, logD of compound; assay type: physicochemical; details: octanol/water
readout.label: logD
Numbers only.

Inquiry: Fill in logD for record N#Cc1ccc(COc2ccc(F)c(N3CCC4(CC3)C[C@@H]4c3nc4ccc(C(=O)O)cc4n3C[C@@H]3CCO3)n2)c(F)c1
Reply text: 2.3

###

Provide the reported EC50 of each item.
target: Glucagon-like peptide 1 receptor (Homo sapiens); experiment: Displacement of [125I]-GLP1 from GLP-1 receptor (unknown origin) expressed in CHO cells membrane pre-incubated for 10 mins followed by [125I]-GLP1 addition and measured after 180 mins by microbeta scintillation counting method
Sequence (P43220 whole entry): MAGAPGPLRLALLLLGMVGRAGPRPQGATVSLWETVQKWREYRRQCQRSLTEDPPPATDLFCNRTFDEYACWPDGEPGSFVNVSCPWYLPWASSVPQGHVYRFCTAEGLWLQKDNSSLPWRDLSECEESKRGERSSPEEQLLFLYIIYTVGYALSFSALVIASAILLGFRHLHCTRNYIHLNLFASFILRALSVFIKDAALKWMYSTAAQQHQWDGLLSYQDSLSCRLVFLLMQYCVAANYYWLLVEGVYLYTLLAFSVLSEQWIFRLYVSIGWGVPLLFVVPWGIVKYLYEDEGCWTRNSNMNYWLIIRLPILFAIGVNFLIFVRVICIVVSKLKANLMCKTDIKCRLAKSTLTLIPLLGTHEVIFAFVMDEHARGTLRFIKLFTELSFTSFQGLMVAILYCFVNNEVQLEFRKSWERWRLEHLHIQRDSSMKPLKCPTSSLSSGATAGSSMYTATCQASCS

Recorded results for 5 compounds are shown here.
| cpd.smiles | target.desc | EC50 |
| --- | --- | --- |
| O=C(O)c1ccc2nc([C@H]3CC34CCN(c3nccc(OCc5ccc(Cl)cc5F)n3)CC4)n(C[C@@H]3CCO3)c2c1 | Glucagon-like peptide 1 receptor (Homo sapiens) | 32 nM |
| N#Cc1ccc(COc2nc(N3CCC4(CC3)C[C@@H]4c3nc4ccc(C(=O)O)cc4n3C[C@@H]3CCO3)c(F)cc2F)c(F)c1 | Glucagon-like peptide 1 receptor (Homo sapiens) | 4.1 nM |
| N#Cc1ccc(COc2ccc(F)c(N3CCC4(CC3)C[C@@H]4c3nc4ccc(C(=O)O)cc4n3C[C@@H]3CCO3)n2)c(F)c1 | Glucagon-like peptide 1 receptor (Homo sapiens) | 5.8 nM |
| O=C(O)c1ccc2nc([C@H]3CC34CCN(c3nc(OCc5ccc(Cl)cc5F)ncc3F)CC4)n(C[C@@H]3CCO3)c2n1 | Glucagon-like peptide 1 receptor (Homo sapiens) | 15 nM |
| N#Cc1ccc(COc2cccc(N3CCC4(CC3)C[C@@H]4c3nc4ccc(C(=O)O)cc4n3C[C@@H]3CCO3)n2)c(F)c1 | Glucagon-like peptide 1 receptor (Homo sapiens) | 15 nM |

Value sought for every listed compound: EC50.
1. N#Cc1ccc(COc2nc(N3CCC4(CC3)C[C@@H]4c3nc4ccc(C(=O)O)cc4n3C[C@@H]3CCO3)ccc2F)c(F)c1
2. O=C(O)c1ccc2nc([C@H]3CC34CCN(c3ncc(F)c(OCc5ccc(Cl)cc5F)n3)CC4)n(C[C@@H]3CCO3)c2c1

Reply text:
1. 14 nM
2. 19 nM

###

biological target: CYP2C9 (Homo sapiens); assay: Inhibition of CYP2C9 (unknown origin) at 3 uM relative to control; format: ADME
Sequence (P11712 whole entry): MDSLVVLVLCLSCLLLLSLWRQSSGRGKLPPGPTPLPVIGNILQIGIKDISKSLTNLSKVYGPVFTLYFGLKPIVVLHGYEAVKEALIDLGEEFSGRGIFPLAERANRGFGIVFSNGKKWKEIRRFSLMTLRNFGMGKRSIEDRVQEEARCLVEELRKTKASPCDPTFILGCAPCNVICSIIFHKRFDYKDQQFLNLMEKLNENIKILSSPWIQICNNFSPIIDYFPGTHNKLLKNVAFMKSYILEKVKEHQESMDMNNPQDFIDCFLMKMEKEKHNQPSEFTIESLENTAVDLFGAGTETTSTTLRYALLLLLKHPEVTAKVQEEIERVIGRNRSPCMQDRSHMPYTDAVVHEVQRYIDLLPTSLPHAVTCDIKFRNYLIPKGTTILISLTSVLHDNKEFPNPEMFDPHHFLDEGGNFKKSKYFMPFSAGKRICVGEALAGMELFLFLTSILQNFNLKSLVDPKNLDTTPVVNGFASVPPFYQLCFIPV
readout.label: inhibition at 3 µM

Inquiry: Return value of inhibition at 3 µM for input N#Cc1ccc(COc2ccc(F)c(N3CCC4(CC3)C[C@@H]4c3nc4ccc(C(=O)O)cc4n3C[C@@H]3CCO3)n2)c(F)c1 , no commentary.
Reply text: < 20%

###

molecular target: CYP2C8 (Homo sapiens); assay: Inhibition of CYP2C8 (unknown origin) at 3 uM relative to control; type: ADME
Sequence (P10632 whole entry): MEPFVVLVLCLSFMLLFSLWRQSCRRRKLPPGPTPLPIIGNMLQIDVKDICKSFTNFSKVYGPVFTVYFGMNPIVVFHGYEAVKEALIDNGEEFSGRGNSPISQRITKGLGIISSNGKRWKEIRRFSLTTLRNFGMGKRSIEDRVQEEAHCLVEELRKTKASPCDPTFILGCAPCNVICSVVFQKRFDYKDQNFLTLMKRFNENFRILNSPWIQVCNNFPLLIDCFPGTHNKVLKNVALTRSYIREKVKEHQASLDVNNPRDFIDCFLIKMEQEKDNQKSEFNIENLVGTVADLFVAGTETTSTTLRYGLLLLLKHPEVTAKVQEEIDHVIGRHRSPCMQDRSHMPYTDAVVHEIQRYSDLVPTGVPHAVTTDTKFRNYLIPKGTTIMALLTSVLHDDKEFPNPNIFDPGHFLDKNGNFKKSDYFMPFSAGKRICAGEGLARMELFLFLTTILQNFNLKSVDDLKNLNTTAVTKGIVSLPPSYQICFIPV
readout.label: inhibition at 3 µM
I'd appreciate it if you wrote the number followed by its unit.

Inquiry: State its inhibition at 3 µM: N#Cc1ccc(COc2ccc(F)c(N3CCC4(CC3)C[C@@H]4c3nc4ccc(C(=O)O)cc4n3C[C@@H]3CCO3)n2)c(F)c1
Reply text: 60%

###

target: CYP2D6 (Homo sapiens, UniProt P10635); assay: Inhibition of CYP2D6 (unknown origin) at 3 uM relative to control; assay type: ADME
Sequence (P10635 whole entry): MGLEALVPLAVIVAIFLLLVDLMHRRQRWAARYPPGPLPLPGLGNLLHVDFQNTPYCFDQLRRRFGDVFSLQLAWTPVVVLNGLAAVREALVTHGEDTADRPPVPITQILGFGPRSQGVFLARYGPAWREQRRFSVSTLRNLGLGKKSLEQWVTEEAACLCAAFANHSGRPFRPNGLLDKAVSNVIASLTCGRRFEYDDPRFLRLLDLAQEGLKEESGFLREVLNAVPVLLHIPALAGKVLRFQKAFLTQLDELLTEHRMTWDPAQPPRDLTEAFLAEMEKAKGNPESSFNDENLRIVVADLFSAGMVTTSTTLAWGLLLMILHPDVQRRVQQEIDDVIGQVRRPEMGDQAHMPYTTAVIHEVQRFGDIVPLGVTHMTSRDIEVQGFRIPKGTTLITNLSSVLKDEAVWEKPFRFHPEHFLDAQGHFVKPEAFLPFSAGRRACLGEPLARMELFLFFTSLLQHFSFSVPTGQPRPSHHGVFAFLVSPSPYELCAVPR
readout.label: inhibition at 3 µM

Inquiry: Find the measured inhibition at 3 µM of N#Cc1ccc(COc2ccc(F)c(N3CCC4(CC3)C[C@@H]4c3nc4ccc(C(=O)O)cc4n3C[C@@H]3CCO3)n2)c(F)c1 and report it.
Reply text: < 20%

###

test: Intrinsic clearance in human hepatocytes measured per million cells; type: ADME, cell-based, Hepatocyte; settings: read-out: CLH
Kindly note that classification relies on hepatocyte CLint with these boundaries: bottom = under 20 µL/min/1e6 cells, middle = from 20 µL/min/1e6 cells up to 30 µL/min/1e6 cells, top = 30 µL/min/1e6 cells and over

| compound | class.name |
| --- | --- |
| N#Cc1ccc(COc2cccc(C3CCN(Cc4nc5ccc(C(=O)O)cc5n4C[C@@H]4CCO4)CC3)n2)c(F)c1 [DANUGLIPRON] | bottom |
| N#Cc1ccc(COc2ccc(F)c(N3CCC4(CC3)C[C@@H]4c3nc4ccc(C(=O)O)cc4n3C[C@@H]3CCO3)n2)c(F)c1 | top |
| O=C(O)c1ccc2nc([C@H]3CC34CCN(c3nc(OCc5ccc(Cl)cc5F)ncc3F)CC4)n(C[C@H]3CCO3)c2c1 | middle |
| O=C(O)c1ccc2nc([C@H]3CC34CCN(c3nc(OCc5ccc(Cl)cc5F)ncc3F)CC4)n(C[C@@H]3CCO3)c2n1 | bottom |

Inquiry: Which hepatocyte CLint band matches N#Cc1ccc(COc2cccc(N3CCC4(CC3)C[C@@H]4c3nc4ccc(C(=O)O)cc4n3C[C@@H]3CCO3)n2)c(F)c1 ?
Reply text: middle

Inquiry: Dear colleague, I would appreciate it if you could identify the bin for O=C(O)c1ccc2nc([C@H]3CC34CCN(c3ncc(F)c(OCc5ccc(Cl)cc5F)n3)CC4)n(C[C@@H]3CCO3)c2c1 and reply at your convenience.
Reply text: middle

Inquiry: State the class of the compound shown: N#Cc1ccc(COc2nc(N3CCC4(CC3)C[C@@H]4c3nc4ccc(C(=O)O)cc4n3C[C@@H]3CCO3)c(F)cc2F)c(F)c1
Reply text: top

###

Could you please report measured Papp for the items listed next?
assay: Apparent permeability in MDCK cells by LC-MS/MS analysis; type: ADME, cell-based, Canis lupus familiaris; settings: dog
Give bare numbers, in ×10⁻⁶ cm/s.

| molecule | Papp [×10⁻⁶ cm/s] |
| --- | --- |
| N#Cc1ccc(COc2cccc(C3CCN(Cc4nc5ccc(C(=O)O)cc5n4C[C@@H]4CCO4)CC3)n2)c(F)c1 [DANUGLIPRON] | 10 |

Count: 3. Required value per item: Papp.
1. N#Cc1ccc(COc2ccc(F)c(N3CCC4(CC3)C[C@@H]4c3nc4ccc(C(=O)O)cc4n3C[C@@H]3CCO3)n2)c(F)c1
2. N#Cc1ccc(COc2cccc(N3CCC4(CC3)C[C@@H]4c3nc4ccc(C(=O)O)cc4n3C[C@@H]3CCO3)n2)c(F)c1
3. N#Cc1ccc(COc2nc(N3CCC4(CC3)C[C@@H]4c3nc4ccc(C(=O)O)cc4n3C[C@@H]3CCO3)ccc2F)c(F)c1

Reply text:
6
7
5

###

target: Voltage-gated inwardly rectifying potassium channel KCNH2 (Homo sapiens, UniProt Q12809)
Sequence (Q12809 whole entry): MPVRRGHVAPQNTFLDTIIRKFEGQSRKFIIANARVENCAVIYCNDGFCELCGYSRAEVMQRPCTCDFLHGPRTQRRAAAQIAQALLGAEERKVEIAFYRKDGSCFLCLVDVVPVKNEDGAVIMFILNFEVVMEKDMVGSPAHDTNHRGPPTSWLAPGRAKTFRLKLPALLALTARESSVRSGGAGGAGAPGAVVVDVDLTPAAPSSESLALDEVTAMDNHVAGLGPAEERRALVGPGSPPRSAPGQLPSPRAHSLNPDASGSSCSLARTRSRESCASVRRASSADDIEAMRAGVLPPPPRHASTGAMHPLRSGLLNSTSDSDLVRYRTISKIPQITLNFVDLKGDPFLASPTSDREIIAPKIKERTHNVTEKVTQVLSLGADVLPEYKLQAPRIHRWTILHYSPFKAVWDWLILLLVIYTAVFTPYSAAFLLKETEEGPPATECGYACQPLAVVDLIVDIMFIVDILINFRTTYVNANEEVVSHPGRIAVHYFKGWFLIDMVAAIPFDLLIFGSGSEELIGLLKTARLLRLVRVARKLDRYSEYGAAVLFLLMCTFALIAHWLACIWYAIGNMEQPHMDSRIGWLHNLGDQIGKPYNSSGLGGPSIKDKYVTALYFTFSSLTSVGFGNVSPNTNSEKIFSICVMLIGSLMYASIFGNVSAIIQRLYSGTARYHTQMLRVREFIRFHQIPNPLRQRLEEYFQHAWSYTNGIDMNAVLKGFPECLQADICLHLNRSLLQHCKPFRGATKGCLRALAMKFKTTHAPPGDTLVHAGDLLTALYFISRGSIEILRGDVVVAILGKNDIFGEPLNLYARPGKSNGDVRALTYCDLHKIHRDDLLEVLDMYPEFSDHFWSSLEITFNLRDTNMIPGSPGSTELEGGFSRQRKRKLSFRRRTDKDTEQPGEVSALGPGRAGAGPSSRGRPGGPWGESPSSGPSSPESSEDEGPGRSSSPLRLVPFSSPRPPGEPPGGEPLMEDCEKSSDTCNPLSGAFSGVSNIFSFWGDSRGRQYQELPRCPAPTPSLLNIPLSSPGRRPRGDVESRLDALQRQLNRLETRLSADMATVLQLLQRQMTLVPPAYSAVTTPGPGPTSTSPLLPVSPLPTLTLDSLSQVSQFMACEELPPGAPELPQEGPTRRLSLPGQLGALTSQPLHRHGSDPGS
readout.label: Ki

Inquiry: Return value of Ki for input N#Cc1ccc(COc2ccc(F)c(N3CCC4(CC3)C[C@@H]4c3nc4ccc(C(=O)O)cc4n3C[C@@H]3CCO3)n2)c(F)c1 , no commentary.
Reply text: > 40 µM
